# credit: ChEMBL document CHEMBL4689842

test system: Fibroblast; assay: Multiplex assay against human fibroblast; assay type: toxicity, cell-based; details: 48 h, 1 µM, compound concentration 1 uM, replicate 2
RESULT_TYPE: Population Mitotic Cells (%)
Expressed in %, but write only the number.

Look over these answered cases.
CN(C)C(=O)N[C@H]1CC[C@H](CCN2CCN(c3cccc(Cl)c3Cl)CC2)CC1.Cl [CARIPRAZINE HYDROCHLORIDE]: 40
COc1cccc([C@@H](C)NCCCc2ccccc2Cl)c1.Cl [TECALCET HYDROCHLORIDE]: 100
Cc1c(-c2ccc(O)cc2)n(Cc2ccc(OCCN3CCCCCC3)cc2)c2ccc(O)cc12: 25

Then there is this compound:
Lookup result for CNc1nc(NCc2ccc(NS(C)(=O)=O)cc2Cl)cc(-c2ccccn2)n1 ; measured Population Mitotic Cells (%): 50
